System: OVCAR-8 ovarian
Assay: NCI-60 one-dose screen, 48 h (100 = growth as untreated, 0 = no growth, -100 = all killed)
Conditions: 10 µM unless noted
About 83,000 compounds went through this panel and 20% of them were active in at least one assay; those are over-represented in the sample as a whole. Where a SMILES comes first, the peptide text is derived from it. [ ]: non-standard residue; d: D form. ξ: configuration not given here. ξD = NC(CC(=O)O)C(=O)O
Catalogue of compounds with associated growth
Please reply with the bare figure in % and do not write the unit itself.

A selection of reference data follows.
CCC(C)(O)Cc1ccc(Cl)cc1 (stereo unspecified) = 108
NCC(=O)NC(CC(=O)O)C(=O)O (stereo unspecified) (H-Gly-[ξD]-OH) = 107
CC1(C)OC2C(COC(c3ccccc3)(c3ccccc3)c3ccccc3)OC(c3c[nH]c4c(N)ncnc34)C2O1 (stereo unspecified) = 56.1
C/C(=N/NC(N)=S)c1ccc(C)cc1 = 76.7
NC(CS/C(Cl)=C/Cl)C(=O)O (stereo unspecified) = 64.6
O=C(c1ccc(O)c(Br)c1)c1ccc(O)c(Br)c1 = 106
Cc1cccc2c(N)c3ccccc3nc12 = -9.82
Oc1c(C(Nc2ccccc2)c2ccccc2)ccc2cccnc12 (stereo unspecified) = 19.8
Cn1c(-c2ccccc2)c(/C=C/C2=[N+](C)c3ccccc3C2(C)C)c2ccccc21 = 2.16
O=[N+]([O-])/C(=C/c1ccccc1)c1ccccc1 = 105

Requested read-out: growth. Entry: CCOC(=O)c1cc(CC)sc1NC(=O)CC(C)=O 43

* * *

Catalogue of compounds with associated growth
Test system: OVCAR-5 ovarian
Test: NCI-60 one-dose screen, 48 h (100 = growth as untreated, 0 = no growth, -100 = all killed)
Settings: 10 µM unless noted
Description: Growth inhibition of the OVCAR-5 human tumor cell line is measured as a screen for anti-cancer activity. Cells are grown in 96 well plates and exposed to the test compound for 48 hours. Compounds are tested at a single concentration, which is 10^-5 M for most compounds. The reported endpoint is percent growth (GI% or GIPRCNT), where numbers from 0 - 100% represent growth inhibition, and numbers from -100% - 0 represent cell death. For example, a value of 40 represents 60% growth inhibition. […]
This is part of a sample that, as a whole, favours compounds with a hit. Of some 83,000 tested, about 20% had one in any assay.
Please reply with the bare figure in % and do not write the unit itself.

A selection of reference data follows.
Cc1ccc(Nc2ccc(O)c3c2C(=O)c2c(O)ccc(Nc4ccc(C)cc4)c2C3=O)cc1 = 106
CC[n+]1ccc(Nc2ccc(NC(=O)c3ccc(Nc4cc[n+](CC)c5ccc([N+](=O)[O-])cc45)cc3)cc2)cc1 = 107
CCCCOS(=O)(=O)c1ccccc1 = 95.8

Requested read-out: growth. Entry: CCCCCCCCCCCC[n+]1ccc2ccccc2c1 7.35

* * *

System: OVCAR-4 ovarian
Test: NCI-60 one-dose screen, 48 h (100 = growth as untreated, 0 = no growth, -100 = all killed)
Conditions: 10 µM unless noted
Protocol: Growth inhibition of the OVCAR-4 human tumor cell line is measured as a screen for anti-cancer activity. Cells are grown in 96 well plates and exposed to the test compound for 48 hours. Compounds are tested at a single concentration, which is 10^-5 M for most compounds. The reported endpoint is percent growth (GI% or GIPRCNT), where numbers from 0 - 100% represent growth inhibition, and numbers from -100% - 0 represent cell death. For example, a value of 40 represents 60% growth inhibition. […]
This is part of a sample that, as a whole, favours compounds with a hit. Of some 83,000 tested, about 20% had one in any assay.
measurement.kind: growth (%)
Please reply with the bare figure in % and do not write the unit itself.

A selection of reference data follows.
CC1=CC(=NC(=O)CBr)C=C/C1=N\S(=O)(=O)c1ccccc1 = 50.6
NC(=S)Nc1ccc2c(c1)Cc1ccccc1-2 = 83.4
O=C(O)c1cc2c(s1)C(=O)c1sccc1C2=O = -6.65
O=C(CCl)N(c1ccccc1)c1ccccc1 = 111

Requested read-out: growth. Entry: N=C(N)Sc1cccc[n+]1[O-] 15.7

Requested read-out: growth. Entry: CC(C)(C)c1ccc(O)c(-c2ccccc2)c1 127

Requested read-out: growth. Entry: C[C@@]1(CO)[C@H](O)CC[C@@]2(C)[C@H]1CC[C@H]1C[C@@H]3C[C@@]12CC[C@@]3(O)COC(=O)CN 87.9

Requested read-out: growth. Entry: COC(=O)c1cc([N+](=O)[O-])cc([N+](=O)[O-])c1Cl 61

Requested read-out: growth. Entry: COc1cccc2c1C(=O)c1c(O)c3c(c(O)c1C2=O)C[C@@](O)(C(=O)CO)C[C@@H]3OC1CC(OC(C)=O)C(OC(C)=O)C(C)O1 (stereo partly specified) -4.7

Requested read-out: growth. Entry: O=C1Nc2ccc(Br)cc2C1=O 93.2

Requested read-out: growth. Entry: Cc1cc(C(=O)c2ccc(Cl)cc2)ccc1O 79.2

Requested read-out: growth. Entry: CN(C)c1ccc(/C=C/c2sc3ccc4ccccc4c3[n+]2C)cc1 -19.9

Requested read-out: growth. Entry: NC(=S)N/N=C/c1ncccc1O 35.2

Requested read-out: growth. Entry: NCCCN(CCCN)CCCNCc1c2ccccc2c(CNCCCN(CCCN)CCCN)c2ccccc12 99.8

Requested read-out: growth. Entry: O=C(c1ccc(O)c(Br)c1)c1ccc(O)c(Br)c1 103

Requested read-out: growth. Entry: O=[N+]([O-])c1ccc(Oc2ccccc2Cl)c([N+](=O)[O-])c1 56.4
